Here the recorded pIC50 is given for each entry.
Biological target: Recombinant human IDO1 (rhIDO1) (Homo sapiens (Human))
Sequence (P14902 whole entry): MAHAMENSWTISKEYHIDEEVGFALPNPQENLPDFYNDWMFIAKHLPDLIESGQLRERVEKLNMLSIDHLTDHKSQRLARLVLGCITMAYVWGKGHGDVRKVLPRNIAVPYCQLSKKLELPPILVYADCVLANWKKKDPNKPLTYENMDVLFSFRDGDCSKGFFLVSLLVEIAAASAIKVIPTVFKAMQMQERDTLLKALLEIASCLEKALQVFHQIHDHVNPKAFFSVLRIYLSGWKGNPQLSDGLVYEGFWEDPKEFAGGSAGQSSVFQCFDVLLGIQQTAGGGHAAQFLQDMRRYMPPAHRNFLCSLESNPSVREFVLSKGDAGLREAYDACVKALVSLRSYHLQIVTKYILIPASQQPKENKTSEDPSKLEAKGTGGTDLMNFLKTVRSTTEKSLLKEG
Experiment: Enzymatic assay for IDO1 activity
Details: rhIDO1 9 nM, 80 μM TRP, 37° C. 30 min
pIC50: −log10 of the molar value.
EXPERIMENTAL_READOUT: pIC50

- MOLECULE: "Nc1noc2nc(Cl)ccc12 [Compound 11, 6-Chloroisoxazolo[5,4-b]pyridin-3-amine]"
  MEASURED_RESULT: "5.00 to 6.00"
- MOLECULE: "CN(C)c1nc2onc(N)c2cc1F [Compound 57]"
  MEASURED_RESULT: "< 4.00"
- MOLECULE: "Nc1noc2nc(Oc3cccc(OC(F)(F)F)c3)ccc12 [Compound 88]"
  MEASURED_RESULT: "< 4.00"
- MOLECULE: "Nc1noc2nc3c(cc12)CCC3 [Compound 59]"
  MEASURED_RESULT: "< 4.00"
- MOLECULE: "CN(C)c1ccnc2onc(N)c12 [Compound 19]"
  MEASURED_RESULT: "< 4.00"
